// pKi collected for ALK (Homo sapiens)
pKi: −log10 of the molar value.
reported_metric: pKi

[[record]]
molecule = "COc1cc(N2CCNCC2)ccc1Nc1nc(Oc2ccccc2Cl)cc2c(C)nnc(O)c12 [Example 119]"
system_name = "ALK (Homo sapiens)"
reported_metric = "pKi"
assay_result = 7.82


1: COc1cc(C2CCNCC2)ccc1Nc1cc(Cc2c(F)cccc2F)nc2cn[nH]c(=O)c12 [Example 109]
2: COc1cc(N2CCNCC2)ccc1Nc1nc(Nc2c(F)cc(F)cc2F)cc2cn[nH]c(=O)c12 [Example 52]
Exercise: Lower value of pKi belongs to which: 1 or 2 ? Could you answer with the label of the item you picked?
Key: 1
(1: 8.22, 2: 8.70)

###

molecular target: ALK (Homo sapiens, UniProt Q9UM73)
Sequence (Q9UM73 19-1620): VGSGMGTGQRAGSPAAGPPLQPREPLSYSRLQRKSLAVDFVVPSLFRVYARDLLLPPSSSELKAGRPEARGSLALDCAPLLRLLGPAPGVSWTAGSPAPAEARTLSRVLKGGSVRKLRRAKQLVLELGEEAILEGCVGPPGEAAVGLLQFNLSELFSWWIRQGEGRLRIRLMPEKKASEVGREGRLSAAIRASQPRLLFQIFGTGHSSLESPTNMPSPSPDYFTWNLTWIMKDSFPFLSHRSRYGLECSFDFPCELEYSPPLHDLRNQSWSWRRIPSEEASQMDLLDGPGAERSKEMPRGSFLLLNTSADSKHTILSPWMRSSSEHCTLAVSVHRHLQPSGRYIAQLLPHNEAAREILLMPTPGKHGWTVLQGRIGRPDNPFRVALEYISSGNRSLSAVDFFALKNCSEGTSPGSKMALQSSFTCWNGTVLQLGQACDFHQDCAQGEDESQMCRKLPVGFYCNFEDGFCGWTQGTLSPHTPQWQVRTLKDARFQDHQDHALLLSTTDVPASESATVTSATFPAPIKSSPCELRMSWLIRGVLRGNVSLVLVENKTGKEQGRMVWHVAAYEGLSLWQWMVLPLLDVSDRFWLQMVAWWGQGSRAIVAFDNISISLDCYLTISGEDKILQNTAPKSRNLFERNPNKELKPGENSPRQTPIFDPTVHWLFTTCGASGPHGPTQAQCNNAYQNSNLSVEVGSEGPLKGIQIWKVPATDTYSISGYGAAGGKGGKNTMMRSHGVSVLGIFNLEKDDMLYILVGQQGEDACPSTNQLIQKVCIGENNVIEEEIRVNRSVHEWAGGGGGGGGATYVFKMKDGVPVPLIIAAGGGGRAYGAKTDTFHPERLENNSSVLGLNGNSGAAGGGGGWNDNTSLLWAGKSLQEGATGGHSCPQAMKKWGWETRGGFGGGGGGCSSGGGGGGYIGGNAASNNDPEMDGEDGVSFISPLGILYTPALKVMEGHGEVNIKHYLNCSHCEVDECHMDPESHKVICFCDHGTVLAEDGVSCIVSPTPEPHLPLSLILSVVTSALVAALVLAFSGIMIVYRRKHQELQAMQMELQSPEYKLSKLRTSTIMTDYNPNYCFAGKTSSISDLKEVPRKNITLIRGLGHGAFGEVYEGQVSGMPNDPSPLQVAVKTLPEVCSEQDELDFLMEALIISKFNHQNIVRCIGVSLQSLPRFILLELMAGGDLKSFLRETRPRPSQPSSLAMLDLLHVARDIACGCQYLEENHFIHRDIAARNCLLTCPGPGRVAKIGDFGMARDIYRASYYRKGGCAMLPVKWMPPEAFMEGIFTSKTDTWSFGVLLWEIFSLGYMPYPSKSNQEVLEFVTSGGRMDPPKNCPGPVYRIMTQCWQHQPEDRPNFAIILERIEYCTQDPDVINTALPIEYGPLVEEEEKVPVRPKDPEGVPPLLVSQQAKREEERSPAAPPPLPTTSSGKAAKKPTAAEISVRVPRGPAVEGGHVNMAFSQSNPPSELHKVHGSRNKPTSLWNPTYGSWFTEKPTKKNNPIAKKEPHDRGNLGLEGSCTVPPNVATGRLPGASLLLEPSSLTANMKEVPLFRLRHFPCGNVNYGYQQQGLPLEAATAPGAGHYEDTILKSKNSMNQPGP
pKi: −log10 of the molar value.
reported_metric: pKi

Worked examples follow.
[[record]]
molecule = "COc1cc(N2CCNCC2)ccc1Nc1nc(NCc2ccco2)cc2cnnc(O)c12 [Example 38]"
system_name = "ALK (Homo sapiens, UniProt Q9UM73)"
reported_metric = "pKi"
assay_result = 7.80

[[record]]
molecule = "Cc1c(Nc2nc(Cc3c(Cl)cccc3Cl)cc3cn[nH]c(=O)c23)ccc(N2CCNCC2)c1C [Example 69]"
system_name = "ALK (Homo sapiens, UniProt Q9UM73)"
reported_metric = "pKi"
assay_result = 9.00

[[record]]
molecule = "COc1cc(N2CCN3CCCC3C2)ccc1Nc1nc(Cc2c(Cl)cccc2Cl)cc2cn[nH]c(=O)c12 (stereo not drawn) [Example 66]"
system_name = "ALK (Homo sapiens, UniProt Q9UM73)"
reported_metric = "pKi"
assay_result = 8.00

[[record]]
molecule = "COc1cc(N2CCNCC2)ccc1Nc1nc(Nc2cccc(Cl)c2F)cc2cnnc(O)c12 [Example 54]"
system_name = "ALK (Homo sapiens, UniProt Q9UM73)"
reported_metric = "pKi"
assay_result = 8.40

[[record]]
molecule = "COc1cc(N2CCNCC2)ccc1Nc1nc(OC2CCCC2)cc2cnnc(O)c12 [Example 87]"
system_name = "ALK (Homo sapiens, UniProt Q9UM73)"
reported_metric = "pKi"
assay_result = 8.40


I: COc1cc(N2CCNCC2)ccc1Nc1nc(Nc2cc(F)ccc2Cl)cc2cn[nH]c(=O)c12 [Example 27]
II: Oc1nncc2cc(N3CCC(F)CC3)nc(Nc3ccc(CN4CCCC4)cc3Cl)c12 [Example 90]
Exercise: Select the item with the higher value of pKi from the options I and II listed. Record your answer as the label of the chosen record.
Key: I
(I: 8.52, II: 8.15)

I: COc1cc(CCN2CCCC2)ccc1Nc1nc(Cc2c(Cl)cccc2Cl)cc2cn[nH]c(=O)c12 [Example 17]
II: COc1cc(C2CCNCC2)ccc1Nc1cc(CCC2CC2)nc2cn[nH]c(=O)c12 [Example 104]
III: O=c1[nH]ncc2cc(Oc3ccccc3Cl)nc(Nc3ccc(N4CCNCC4)cc3OC(F)F)c12 [Example 117]
Exercise: Put the items in order so that reported pKi rises from first to last. Write the labels in rank order as requested.
Key: II, III, I

A: COc1cc(N2CCNCC2)ccc1Nc1nc(N[C@H]2CC[C@H](O)CC2)cc2cnnc(O)c12 [Example 86]
B: COCCNc1cc2cnnc(O)c2c(Nc2ccc(N3CCNCC3)cc2OC)n1 [Example 36]
Exercise: Param pair: A , B . Output: the one whose pKi is numerically greater. Lab note: record the label of whichever item you select.
Key: A

P: COc1cc(N2CCNCC2)ccc1Nc1nc(Oc2ccccc2C#N)cc2cn[nH]c(=O)c12 [Example 115]
Q: COc1cc(N2CCNCC2)ccc1Nc1nc(NC2=N[C@H](C(C)C)CO2)cc2cnnc(O)c12 [Example 23]
Exercise: Lower pKi: P or Q ? Choose, then provide that item's label.
Key: Q
(Q: 7.68, P: 8.22)

These measurements were taken from patent US20140155389A1.
